# assay protocol: Inhibition of Cdc25B R544K mutant
measurement name: pIC50
// returns pIC50 (minus log10 of molar concentration), number only

Reported pIC50 of COc1ccc(-n2nnc(SCC(=O)c3ccc(O)c(O)c3)n2)cc1 : 4.76

###

# target under test: M-phase inducer phosphatase 2 (Homo sapiens)
# Sequence (P30305 whole entry): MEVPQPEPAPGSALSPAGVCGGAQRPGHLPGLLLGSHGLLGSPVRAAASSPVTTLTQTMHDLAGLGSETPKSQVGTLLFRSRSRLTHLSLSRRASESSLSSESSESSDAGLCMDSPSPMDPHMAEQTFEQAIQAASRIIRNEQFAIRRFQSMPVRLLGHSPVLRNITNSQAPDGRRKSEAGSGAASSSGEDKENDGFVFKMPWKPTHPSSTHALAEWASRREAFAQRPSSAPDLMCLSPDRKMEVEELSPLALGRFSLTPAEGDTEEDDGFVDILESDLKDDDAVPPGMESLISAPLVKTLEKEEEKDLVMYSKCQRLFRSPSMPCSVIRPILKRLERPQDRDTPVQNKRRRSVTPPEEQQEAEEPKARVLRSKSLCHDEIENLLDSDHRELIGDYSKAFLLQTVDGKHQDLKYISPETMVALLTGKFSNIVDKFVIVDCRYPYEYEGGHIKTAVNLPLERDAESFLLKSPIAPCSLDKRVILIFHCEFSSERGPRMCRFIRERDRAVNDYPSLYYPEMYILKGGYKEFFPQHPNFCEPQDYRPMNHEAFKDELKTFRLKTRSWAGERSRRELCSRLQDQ
measurement name: IC50 (µM)
Answer in µM, number only, no unit symbol.

Reported IC50 of Cc1ccc(/N=C2N=C(O)/C(=C/C=C/c3ccco3)S\2)cc1C : 5.44

Reported IC50 of C=CCn1c(SCC(=O)c2ccc(O)c(O)c2)nnc1-c1cccc(Cl)c1 : 4.67
